Just for reference, patent US20240076389A1 is where these values come from.

assayed target: T1, human AXL expressed on the cell surface of tumor cell lines (human, UniProt P30530 26-894)
T1 construct: whole, on cells; also called cell surface-expressed AXL; cell-based AXL
T1 sequence (looked up): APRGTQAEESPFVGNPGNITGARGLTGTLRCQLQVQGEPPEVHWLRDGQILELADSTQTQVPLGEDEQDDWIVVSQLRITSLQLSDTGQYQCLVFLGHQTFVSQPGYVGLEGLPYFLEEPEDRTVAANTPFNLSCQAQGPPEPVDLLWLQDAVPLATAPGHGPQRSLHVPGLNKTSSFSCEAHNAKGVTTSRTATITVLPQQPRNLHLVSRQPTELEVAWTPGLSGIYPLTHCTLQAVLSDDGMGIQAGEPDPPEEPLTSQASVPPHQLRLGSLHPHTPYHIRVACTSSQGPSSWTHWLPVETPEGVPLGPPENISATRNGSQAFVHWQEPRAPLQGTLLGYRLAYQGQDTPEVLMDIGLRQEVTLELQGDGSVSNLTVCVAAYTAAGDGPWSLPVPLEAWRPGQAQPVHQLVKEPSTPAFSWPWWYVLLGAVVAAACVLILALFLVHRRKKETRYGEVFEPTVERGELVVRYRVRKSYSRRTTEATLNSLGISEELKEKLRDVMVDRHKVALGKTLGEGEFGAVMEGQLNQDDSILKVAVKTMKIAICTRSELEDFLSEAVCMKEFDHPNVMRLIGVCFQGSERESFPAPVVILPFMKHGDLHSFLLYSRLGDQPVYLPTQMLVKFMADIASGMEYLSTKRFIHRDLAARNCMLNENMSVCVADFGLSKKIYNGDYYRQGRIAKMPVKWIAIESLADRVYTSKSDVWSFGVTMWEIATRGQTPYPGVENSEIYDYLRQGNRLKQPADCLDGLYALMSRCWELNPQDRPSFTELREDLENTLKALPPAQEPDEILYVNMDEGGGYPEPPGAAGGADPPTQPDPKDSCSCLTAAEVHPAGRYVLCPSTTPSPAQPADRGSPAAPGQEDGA
assay notes: flow cytometry on H292 cells, apparent cell binding constant
endpoint: pKd
The scale used: pKd is minus the common logarithm of the concentration in molar units.

Known pKd results, listed for orientation:
F111-3C8 (antibody, V domains shown, also called F111-3C8-2) VH: QVQLQQPGAELGKPGTSVKLSCKASGYTFTSYWMHWVKRVPGQGLEWIGNINPNSTSADYNEKFKRKATLTVDKSSSTAYMQLSTLTSEDSAVYYCTRPLMGPYWYFDVWGTGTTVTVSS VL: QIVLTQSPAIMSASPGEKVTISCSASSSVSYMYWYQQKPGSSPKPWIYRTSNLASGVPARFSGSGSGTSYSLTISSMEAEDAATYYCQQYHNYPPTFGGGTKLEIK ... 8.91
F107-8D12 (antibody, V domains shown, also called F107-8D12-2; mAb 8D12) VH: QVQLQQPGAELVKPGASVQLSCKASGYTFISFWINWVKQRPGQGLEWMGNIFPGSSSTNYNEKFKSKATLTVDKSSSTAYMQLSSLTSEDSAVYFCARDYYGGSPDYWGQGTTLTVSS VL: DIVMSQSPSSLAVSAGERVTMSCKSSQSLLNTRTRKNYLAWYQQKPGQSPKLLIYWASTRESGVPDRFTGSGSGTDFTLTISSVQAEDLAVYYCKQSYNLWTFGGGTKLEIK ... 10.06
F107-7H5 (antibody, V domains shown, also called F107-7H5-2; mAb 7H5) VH: QVQLQQPGAELVKPGASVKLSCKASGYTFTSYWINWVKQRPGQGLEWIGNIYPDSSSTNYNEKFKSKATLTVDKSSTTAYIQFSSLTSEDSAVYYCTRDTYGGSPDYWGQGTTLTVSS VL: DIVMSQSPSSLAVSAGEKVTMSCKSSQSLLNSRTRKIYLAWYQQKPGQSPKLLIYWASTRQSGVPDRFTGSGSGTDFTLTISSVQAEDLAVYYCKQSYNLWTFGGGTKLEIK ... 9.98

Turning to the following binder.
Prompt line: Item F111-5E9 (antibody, V domains shown, also called F111-5E9-2; mAb 5E9) VH: QIQLVQSGPELKKPGETVKISCKASGYTFTKYGMNWVKQAPGKGLKWMGWINTYTGEPTYADDFKGRFAFSLETSASTAYLQINNLTTEDMVTYFCAKGGYYSNPIYPMDYWGQGTSVTVSS VL: DIQMTQTTSSLSASLGDRVTISCRASQDINNYLNWYQQKPDGTVKLLIYYISRLHSGVPSRFSGSGSGTDYSLTISNLELEDVATYFCQQGNTLPFTFGSGTKLEIK has what recorded pKd?
Response line: 9.75
